# method notes: Plasma pharmacokinetics on cycle 1, day 1
# Format: in vivo, human
# protocol conditions: human, plasma, intravenous
endpoint label: half-life

half-life reading for COc1c(OCCCN2CCOCC2)ccc2c1N=C(NC(=O)c1cnc(N)nc1)N1CCN=C21 [copanlisib] : 25 to 26 h
